The measurements presented in this section are drawn from patent US20210206877A1.

biological target: murine BACE1 ECD; test: cell-based or functional assay; note: test concentration or dose not given here
Sequence (single chain, as listed by the source limits assumed): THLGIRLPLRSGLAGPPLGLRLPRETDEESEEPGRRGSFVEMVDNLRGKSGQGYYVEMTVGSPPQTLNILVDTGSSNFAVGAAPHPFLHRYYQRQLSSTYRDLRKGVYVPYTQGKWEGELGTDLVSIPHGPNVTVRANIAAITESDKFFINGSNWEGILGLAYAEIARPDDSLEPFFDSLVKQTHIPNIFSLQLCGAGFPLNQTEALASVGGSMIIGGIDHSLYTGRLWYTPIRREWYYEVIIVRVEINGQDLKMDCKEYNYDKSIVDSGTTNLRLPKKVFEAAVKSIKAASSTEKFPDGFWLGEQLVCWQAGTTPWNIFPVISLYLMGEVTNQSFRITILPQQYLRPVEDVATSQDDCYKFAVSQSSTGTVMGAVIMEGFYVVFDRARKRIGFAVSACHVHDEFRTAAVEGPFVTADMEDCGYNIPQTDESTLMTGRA
Each item that follows carries a reported % inhibition, FRET short substrate assay (negative = activation).
Please state the figure in %; there is no need to write the unit.

INSERT INTO measurements (binder, numeric_readout) VALUES
  ('5644 (antibody, V domains shown) VH: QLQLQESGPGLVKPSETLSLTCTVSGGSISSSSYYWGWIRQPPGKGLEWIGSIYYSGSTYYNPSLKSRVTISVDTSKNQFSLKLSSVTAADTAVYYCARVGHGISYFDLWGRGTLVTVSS VL: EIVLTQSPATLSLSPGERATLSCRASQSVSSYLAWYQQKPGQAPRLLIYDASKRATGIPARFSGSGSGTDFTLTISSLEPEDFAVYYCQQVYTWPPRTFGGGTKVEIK', 63);

Pending binder:
Return the recorded % inhibition, FRET short substrate assay (negative = activation) value; entry: 5890 (antibody, V domains shown) VH: QVQLVQSGAEVKKPGSSVKVSCKASGGTFSSYAISWVRQAPGQGLEWMGNIIPGFGTANYAQKFQGRVTITADESTSTAYMELSSLRSEDTAVYYCARSGGTKYGMLDVWGQGTMVTVSS VL: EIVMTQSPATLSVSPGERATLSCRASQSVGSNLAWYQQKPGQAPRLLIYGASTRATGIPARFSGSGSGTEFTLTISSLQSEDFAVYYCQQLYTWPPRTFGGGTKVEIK
69
